Tested on: NCI-H226 lung
Assay: NCI-60 one-dose screen, 48 h (100 = growth as untreated, 0 = no growth, -100 = all killed)
Conditions: 10 µM unless noted
About 83,000 compounds went through this panel and 20% of them were active in at least one assay; those are over-represented in the sample as a whole.
attribute_measured: growth (%)

- compound: "N=c1c2ccccc2nc2n1CCCCC2"
  target_under_test: "NCI-H226 lung"
  attribute_measured: "growth"
  result_number: 102
- compound: "CCCCCn1cnc2c(=S)nc[nH]c21"
  target_under_test: "NCI-H226 lung"
  attribute_measured: "growth"
  result_number: 110
- compound: "O=C1/C(=C/c2ccc(Cl)cc2Cl)CN(S(=O)(=O)c2ccccc2)C/C1=C\\c1ccc(Cl)cc1Cl"
  target_under_test: "NCI-H226 lung"
  attribute_measured: "growth"
  result_number: 58.3
- compound: "COc1ccc(S(=O)(=O)NCCCNc2cc(-c3c(-c4cccc(OC)c4)nc4sccn34)ccn2)cc1"
  target_under_test: "NCI-H226 lung"
  attribute_measured: "growth"
  result_number: 37.7
- compound: "COc1ccc(C2c3ccc4ccccc4c3Oc3ncnc(N)c32)cc1 (stereo not given)"
  target_under_test: "NCI-H226 lung"
  attribute_measured: "growth"
  result_number: 63.9
- compound: "COc1cc(OC)c(/C=C/c2cc[n+](C)c3ccccc23)c(OC)c1"
  target_under_test: "NCI-H226 lung"
  attribute_measured: "growth"
  result_number: 23.1
- compound: "CCN(C(=O)CN1CCN(c2cc3c(cc2F)c(=O)c(C(=O)O)cn3C2CC2)CC1)c1nc(-c2ccc(OC)cc2)cs1"
  target_under_test: "NCI-H226 lung"
  attribute_measured: "growth"
  result_number: 85.8
- compound: "COc1ccc(-c2c(C)noc2-c2ccc(O)cc2O)cc1"
  target_under_test: "NCI-H226 lung"
  attribute_measured: "growth"
  result_number: 101
- compound: "CCOC(=O)C(=Cc1ccccc1F)C(=O)OCC"
  target_under_test: "NCI-H226 lung"
  attribute_measured: "growth"
  result_number: 96.1
- compound: "COc1cc(NCCCCCN=C(N)NC(N)=NC(C)C)c2ncccc2c1"
  target_under_test: "NCI-H226 lung"
  attribute_measured: "growth"
  result_number: 71.2

----------
System: OVCAR-4 ovarian
Assay: NCI-60 one-dose screen, 48 h (100 = growth as untreated, 0 = no growth, -100 = all killed)
Settings: 10 µM unless noted
Compounds without any hit were thinned out: in the full panel of roughly 83,000, 20% have a hit.
Lab note: anything with growth below 90% is marked Fulfilled; values at 90% or higher are marked Not fulfilled.

- compound: "CSc1[nH]c2ncnc(N)c2c1C#N"
  target_under_test: "OVCAR-4 ovarian"
  label_value: "Not fulfilled"
- compound: "COc1ccc(C(=O)/C=C/c2cc3ccccc3[nH]c2=O)cc1"
  target_under_test: "OVCAR-4 ovarian"
  label_value: "Fulfilled"
- compound: "CC1(C)OCC2OC3(C(=O)O)OC(C)(C)OC3C2O1 (centres undefined)"
  target_under_test: "OVCAR-4 ovarian"
  label_value: "Not fulfilled"
- compound: "COc1ccc(-c2c3c(nc4n[nH]c(-c5ccc(Cl)cc5)c24)-c2ccccc2C(=O)C3=O)cc1"
  target_under_test: "OVCAR-4 ovarian"
  label_value: "Fulfilled"
- compound: "C[C@@]1(N2C(=O)OC[C@@H]2c2ccccc2)C(=O)N([C@H](CC(=O)N2CCC(N3CCCCC3)CC2)C(=O)NCc2cccc(C(F)(F)F)c2)[C@@H]1/C=C/c1ccccc1"
  target_under_test: "OVCAR-4 ovarian"
  label_value: "Fulfilled"
- compound: "C(=N\\Nc1ccccn1)/c1ccccn1"
  target_under_test: "OVCAR-4 ovarian"
  label_value: "Fulfilled"
- compound: "CCOC(=O)c1c2c(n3ccc(NC(=O)CCN4CCOCC4)cc13)C(=O)c1ncccc1C2=O"
  target_under_test: "OVCAR-4 ovarian"
  label_value: "Fulfilled"
- compound: "CC(=O)C1=C(O)C=C2Oc3c(C(=O)/C=C/c4ccccc4)c(O)c(C)c(O)c3[C@]2(C)C1=O"
  target_under_test: "OVCAR-4 ovarian"
  label_value: "Fulfilled"

The measured values listed here are drawn from PubChem BioAssay (NCI).
